// provenance: PubChem BioAssay AID686949

# TARGET_OF_ASSAY: Kallikrein-7 (Homo sapiens)
# MEASUREMENT_PROTOCOL: activation of human kallikrein-7 proenzyme – biochemical, fluorescence intensity, triplicate, confirmation (AID 686949)
# MEASUREMENT_PARAMETERS: purified proKLK7, EDANS-DABCYL substrate fluorescence; at 7 µM; scaled: vehicle 0, mature enzyme 100
Among all 3,200 compounds or so, about 2,200 (69%) were called active.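 How the source made its calls: active means activation, as change over the incubation, above the mean of all tested compounds plus 3 SD (cut at about 13% in these data); inactive means the rest.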 The set was probably picked from earlier hits. A selection follows.
One label from this list, please: active, inactive

Example cases with answers are listed next.
CCN(CC)CCCNC(=O)c1cc2c(=O)[nH]c3ccc(C)cc3c2s1; inactive
CC1(C)Oc2ccc3ccc(=O)oc3c2/C(=N/O)C1=O; active
Cc1coc2c1c(C)cc1oc(=O)c(CC(=O)NCC(=O)N[C@H](C(=O)O)C(C)C)c(C)c12; active
COC(=O)c1cnn2c(C(F)(F)F)cc(-c3ccco3)nc12; active
COc1ccc(-c2cc(C(=O)n3cnc4ccccc43)c3ccccc3n2)cc1; active
Cc1nc2ccccc2cc1O; inactive
COc1cc2c(cc1OC)C(C(C)C)=NC(C)(C)C2; active
O=C(OC1CCOC1=O)c1ccc(-c2nc3ccccc3s2)s1 (stereo unspecified); active
CN(C(=O)c1cc2c(=O)n3ccccc3nc2s1)C1CCCCC1; active
CCCN(CC(=O)NC(=O)NC1CCCCC1)CC(=O)Nc1cc(Cl)ccc1Cl; inactive

Please look at the following compound next.
What outcome does the record of this test show for COC(=O)c1ccc(C2C3=C(Nc4nnnn42)c2ccccc2OC3)cc1 (stereo unspecified) ?
inactive
